# testTarget: hCB1 (Homo sapiens, UniProt P21554)
# Sequence (P21554 whole entry): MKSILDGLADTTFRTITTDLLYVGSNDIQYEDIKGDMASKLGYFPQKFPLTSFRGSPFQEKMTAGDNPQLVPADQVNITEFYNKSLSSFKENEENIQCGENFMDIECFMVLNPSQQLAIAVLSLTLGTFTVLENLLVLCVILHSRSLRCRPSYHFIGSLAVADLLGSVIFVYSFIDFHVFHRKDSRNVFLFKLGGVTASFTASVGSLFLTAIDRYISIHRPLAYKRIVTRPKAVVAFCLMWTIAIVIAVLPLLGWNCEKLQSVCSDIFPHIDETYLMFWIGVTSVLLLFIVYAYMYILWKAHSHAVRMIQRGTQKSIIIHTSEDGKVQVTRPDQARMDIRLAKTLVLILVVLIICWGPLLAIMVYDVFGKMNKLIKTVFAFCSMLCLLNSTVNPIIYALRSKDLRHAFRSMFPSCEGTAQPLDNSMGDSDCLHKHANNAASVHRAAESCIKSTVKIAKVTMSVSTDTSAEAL
# protocol: bioSensAll ebBRET signaling profiling, hCB1
# Assay type: cell-based
# Set-up: host or cells: HEK293SL cells, transient PEI transfection
# conditionInfo: Log [Compound] (M) -4.63927; single replicate values, FigS6a
Recorded Gi1 hCB1 by entry
valueType: Gi1 hCB1

> print(dat)
                                   compound                           testtarget  valuetype  testresult
1  Cc1cc(C(=O)N(C)C(c2ccccc2)c2ccco2)nn1-c1cccc(C(F)(F)F)c1 (stereo not drawn) [‘1082]  hCB1 (Homo sapiens, UniProt P21554)   Gi1 hCB1    -10.6872
2  Cc1cc(C(=O)N2CC3(CCC3)[C@@H]2[C@@H]2CCCO2)nn1-c1cccc(C(F)(F)F)c1 [‘3386]  hCB1 (Homo sapiens, UniProt P21554)   Gi1 hCB1      -6.833
3  Cc1c(C(=O)OCC2CSc3ccccc3O2)cnn1Cc1ccccc1 (stereo not drawn) [‘7800]  hCB1 (Homo sapiens, UniProt P21554)   Gi1 hCB1     18.3425
4  CC(=O)C(c1cccs1)N(C)C(=O)c1cc(C)n(-c2cccc(C(F)(F)F)c2)n1 (stereo not drawn) [‘6829]  hCB1 (Homo sapiens, UniProt P21554)   Gi1 hCB1     49.4067
5  Cc1cc(C(=O)N2CC3(CCC3)[C@H]2[C@@H]2CCCO2)nn1-c1cccc(C(F)(F)F)c1 [‘5490]  hCB1 (Homo sapiens, UniProt P21554)   Gi1 hCB1     84.6644
6  Cc1nc(CC2CC2)oc1-c1nc(Cc2cc3c(cc2Br)OCO3)no1 [‘7019]  hCB1 (Homo sapiens, UniProt P21554)   Gi1 hCB1      -8.042
7  Cc1cc(C(=O)NC(c2ccccc2)c2ccco2)nn1-c1cccc(C(F)(F)F)c1 (stereo not drawn) [‘1081]  hCB1 (Homo sapiens, UniProt P21554)   Gi1 hCB1     50.1467
8  Cc1cc(C(=O)N(C)C(c2ccco2)c2ccco2)nn1-c1cccc(C(F)(F)F)c1 [‘4388]  hCB1 (Homo sapiens, UniProt P21554)   Gi1 hCB1       -2.47
9  Cc1nn(Cc2ccc(Cl)cc2)c(C)c1C(=O)OCC1CSc2ccccc2O1 (stereo not drawn) [‘5463]  hCB1 (Homo sapiens, UniProt P21554)   Gi1 hCB1     21.0665

====

Recorded concentration at 480 min by entry
# protocol: Pharmacokinetics: plasma, brain, CSF
# conditionInfo: male, CD-1, mouse, plasma, intraperitoneal, 0.2 mg/kg
valueType: concentration at 480 min

> print(dat)
                                   compound                 valuetype   testresult
1  COC(=O)[C@@](C)(NC(=O)c1cc(C)n(-c2cccc(C(F)(F)F)c2)n1)c1cccs1 [‘1350]  concentration at 480 min  0.486 ng/mL
2  Cc1cc(C(=O)NC(C)(c2ccco2)c2ccco2)nn1-c1cccc(C(F)(F)F)c1 [‘4936]  concentration at 480 min      0 ng/mL

====

# testTarget: hCB1 (Homo sapiens, UniProt P21554)
# protocol: bioSensAll ebBRET signaling profiling, hCB1
# Type: cell-based
# Set-up: host or cells: HEK293SL cells, transient PEI transfection
# conditionInfo: Gi1 biosensor; Log [Compound] (M) -5.89285
valueType: Gi1 hCB1 response

> print(dat)
                                   compound  testresult
1  Cc1cc(C(=O)N2CC3(CCC3)[C@@H]2[C@H]2CCCO2)nn1-c1cccc(C(F)(F)F)c1 (single isomer, unassigned) [compound 430]    -12.5003
2  Cc1cc(C(=O)N2CC3(CCC3)[C@H]2[C@H]2CCCO2)nn1-c1cccc(C(F)(F)F)c1 [‘1651]     34.5455
3  COC(=O)[C@](C)(NC(=O)c1cc(C)n(-c2cccc(C(F)(F)F)c2)n1)c1cccs1 [‘8690]     68.8562
4  Cc1cc(C(=O)N(C)C(c2ccco2)c2ccco2)nn1-c1cccc(C(F)(F)F)c1 [‘4388]    -11.6498
5  COC(=O)C(NC(=O)c1cc(C)n(-c2cccc(F)c2)n1)c1cccs1 (stereo not drawn) [‘51486]     72.6387
6  COC(=O)[C@@H]1[C@@H]2CCC[C@@H]2CN1C(=O)c1cc(C)n(-c2cccc(C(F)(F)F)c2)n1 [‘6439]      85.038
7  COC(=O)C(NC(=O)c1cc(C)n(-c2cccc(C(F)(F)F)c2)n1)c1cccs1 (stereo not drawn) [‘60154]     102.272
8  Cc1cc(C(=O)NC(c2ccccc2)c2ccco2)nn1-c1cccc(C(F)(F)F)c1 (stereo not drawn) [‘1081]     64.2009
9  COc1cccc(C(NC(=O)c2cc(C)n(-c3cccc(C(F)(F)F)c3)n2)c2ccco2)c1 (stereo not drawn) [‘1087]     -12.478
